For each record, write down the corresponding drug sensitivity score.
System: CAF#5 (primary prostate cancer-associated fibroblasts of myCAF-like type)
TEST_DESCRIPTION: drug sensitivity score (DSS2, normalised partial AUC of dose-response, 72 h CellTiter-Glo viability) (DSS (dimensionless)); higher = more sensitive (stronger growth inhibition / cytotoxicity); extreme values may be limits of the assay
Give bare numbers.

[
  {
    "COMPOUND": "COc1cc(Nc2ncc(F)c(Nc3ccc4c(n3)NC(=O)C(C)(C)O4)n2)cc(OC)c1OC [Tamatinib] (tested concentration range 1-10000 nM)",
    "TEST_SYSTEM": "CAF#5",
    "drug sensitivity score": 6.4
  },
  {
    "COMPOUND": "O=C(Nc1cccc(Nc2ncc(Br)c(NCCc3cnc[nH]3)n2)c1)N1CCCC1 [BX-912] (tested concentration range 1-10000 nM)",
    "TEST_SYSTEM": "CAF#5",
    "drug sensitivity score": 8.1
  },
  {
    "COMPOUND": "C=CC(=O)N1CCC(Oc2cc3c(Nc4ccc(Cl)c(Cl)c4F)ncnc3cc2OC)CC1 [Poziotinib] (tested concentration range 0.1-1000 nM)",
    "TEST_SYSTEM": "CAF#5",
    "drug sensitivity score": 0
  }
]

Can you give me drug sensitivity score for all of these, one by one?
1. O=C(/C=C\n1cnc(-c2cc(C(F)(F)F)cc(C(F)(F)F)c2)n1)NNc1cnccn1 [Selinexor] (tested concentration range 1-10000 nM)
2. CCN(CC)CCN(Cc1ccc(-c2ccc(C(F)(F)F)cc2)cc1)C(=O)Cn1c(SCc2ccc(F)cc2)nc(=O)c2c1CCC2 [Darapladib] (tested concentration range 0.1-1000 nM)
3. CO[C@H]1C[C@@H]2CC[C@@H](C)[C@@](O)(O2)C(=O)C(=O)N2CCCC[C@H]2C(=O)O[C@H]([C@H](C)C[C@@H]2CC[C@@H](O)[C@H](OC)C2)CC(=O)[C@H](C)/C=C(\C)[C@@H](O)[C@@H](OC)C(=O)[C@H](C)C[C@H](C)/C=C/C=C/C=C/1C [Sirolimus] (tested concentration range 0-100 nM)
4. C=C(c1ccc(C(=O)O)cc1)c1cc2c(cc1C)C(C)(C)CCC2(C)C [Bexarotene] (tested concentration range 1-10000 nM)
5. COc1cccc2c1C(=O)c1c(O)c3c(c(O)c1C2=O)C[C@@](O)(C(=O)CO)C[C@@H]3O[C@H]1C[C@H](N)[C@H](O)[C@H](C)O1 [Doxorubicin] (tested concentration range 0.1-1000 nM)

Reply |
[14.6, 0.7, 7.4, 3.8, 6.7]
